Measured values drawn from patent US12577242B2 for this set.

- Test system: Bovine viral diarrhea (BVD) virus
- assay_name: Anti-BVDV CPE inhibition assay in MDBK cells
- study_conditions: Bovine viral diarrhea virus isolates and strains, MDBK, in Bos taurus, 96 h
pEC50: −log10 of the molar value.
// label = true if pEC50 is not less than 7, otherwise false

Consider the following illustrative entries.
COc1ncccc1-c1nc2ccn(Cc3nc4ccc(C)cc4s3)cc-2n1 true
COc1ccccc1-c1cc2ccn(Cn3nnc4ccccc43)cc-2n1 true
Fc1ccccc1-c1nc2ccn(Cn3nnc4ccccc43)cc-2n1 false

query: Reported pEC50 at or above 7? Cc1ccc2nc(Cn3ccc4cc(-c5ccccc5CO)nc-4c3)[nH]c2c1
result: false

* * *

- assay_name: Cytotoxicity in MDBK cells (no BVD virus added)
- study_conditions: bovine, MDBK cells (Madin-Darby bovine kidney), no virus added
readout_label: CC50 at 4 days (µM)
One number for each entry, in µM.

Cc1ccc2nc(Cn3ccc4nc(-c5ccccc5OC(F)F)nc-4c3)sc2c1 31
COc1ccccc1-c1cc2ccn(Cn3nnc4ccccc43)cc-2n1 22

Take each entry in turn and give its CC50 at 4 days.
1. Cc1ccc2oc(Cn3ccc4cc(-c5ccccc5F)nc-4c3)nc2c1
2. Cc1ccc2nc(Cn3ccc4nc(-c5cc(OCCO)ccc5F)cc-4c3)sc2c1
3. COc1ncccc1-c1cc2ccn(Cc3nc4ccc(C)cc4s3)cc-2n1

result:
1: 5; 2: 16; 3: 4

Go through the items and report each one's CC50 at 4 days.
1. Fc1ccc(OC(F)(F)F)cc1-c1nc2ccn(Cn3nnc4ccccc43)cc-2n1
2. N#Cc1ccc(-c2cc3cn(Cn4nnc5ccccc54)ccc-3n2)cc1
3. Cc1ccc2nc(Cn3ccc4nc(-c5cn(C)nc5C)nc-4c3)sc2c1
4. Cc1ccc2nc(Cn3ccc4nc(-c5cnn(C)c5C)cc-4c3)sc2c1

result:
1: 48; 2: 21; 3: 231; 4: 21

* * *

- Test system: Bovine viral diarrhea (BVD) virus
- assay_name: Anti-BVDV CPE inhibition assay in MDBK cells
- study_conditions: Bovine viral diarrhea virus isolates and strains, MDBK, in Bos taurus, 96 h
Kindly note that classification relies on EC50 with these boundaries: category 1 = under 20 nM, category 2 = from 20 nM up to 100 nM, category 3 = 100 nM and over

Cc1ccc2nc(Cn3ccc4nc(-c5cnn(C)c5C)nc-4c3)sc2c1 category 1

query: State the band of Cc1c(-c2nc3ccn(Cn4nnc5ccccc54)cc-3n2)cnn1C
result: category 3

query: Dear colleague, I would appreciate it if you could identify the bin for COc1ccccc1-c1cc2cn(Cn3nnc4ccccc43)ccc-2n1 and reply at your convenience.
result: category 2

query: Could you place Fc1ccc(OC(F)(F)F)cc1-c1nc2ccn(Cn3nnc4ccccc43)cc-2n1 in its proper category? Many thanks.
result: category 2

query: Bin this entry: COc1ccccc1-c1nc2ccn(Cn3nnc4ccccc43)cc-2n1
result: category 2

query: Which band does Cc1c(-c2nc3ccn(Cc4nc5ccc6ccccc6c5s4)cc-3n2)cnn1C fall in?
result: category 1

query: Band for the recorded EC50 of Cc1ccc2oc(Cn3ccc4nc(-c5ccccc5F)nc-4c3)nc2c1 ?
result: category 3

query: Given Fc1ccccc1-c1nc2ccn(Cc3nc4cc(Cl)ccc4s3)cc-2n1 , name the class its EC50 places it in.
result: category 2

* * *

- Tested on: Bovine viral diarrhea (BVD) virus
- assay_name: Anti-BVDV CPE inhibition assay in MDBK cells
- study_conditions: Bovine viral diarrhea virus isolates and strains, MDBK, in Bos taurus, 96 h
readout_label: pEC50
One number for each entry, as −log10 of the molar value.

Below, each entry is followed by its recorded pEC50 result.
Cc1ccc(-c2nc3ccn(Cc4cc(-c5cc(F)ccc5F)no4)cc-3n2)s1 6.47
COc1ncccc1-c1cc2cn(Cc3nc4ccc(C)cc4s3)ccc-2n1 8.22
Cc1c(-c2nc3ccn(Cc4nc5ccc(Cl)cc5s4)cc-3n2)cnn1C 7.57
COc1ncccc1-c1cc2ccn(Cc3nc4ccc(C)cc4s3)cc-2n1 7.77
Cc1nc(Cn2ccc3nc(-c4ccccc4F)nc-3c2)sc1-c1ccccc1 6.59

State the recorded pEC50 for every item in the following list.
1. Fc1ccccc1-c1nc2ccn(Cc3nc4ccccc4s3)cc-2n1
2. Cc1ccc2nc(Cn3ccc4nc(-c5cn(C)nc5C)nc-4c3)sc2c1
3. CN(C)c1cccc(-c2nc3ccn(Cc4cc(-c5cc(F)ccc5F)no4)cc-3n2)c1

result:
1: 6.52; 2: 7.10; 3: 7.06

// batch mode: one pEC50 value per listed entry
1. COc1ncccc1-c1cc2cn(Cc3nc4ccc(C)cc4[nH]3)ccc-2n1
2. Cc1ccc2sc(Cn3ccc4nc(-c5cnn(C)c5C)nc-4c3)nc2c1

result:
6.40
7.10

# batch: return pEC50 for each of the 8 molecules below
1. OCc1ccccc1-c1nc2ccn(Cc3cc(-c4cc(F)ccc4F)no3)cc-2n1
2. Cc1ccc2nc(Cn3ccc4nc(-c5ccccc5CO)cc-4c3)[nH]c2c1
3. COc1ncccc1-c1cc2ccn(Cn3nnc4ccccc43)cc-2n1
4. OCCOc1ccc(F)c(-c2cc3ccn(Cn4nnc5ccccc54)cc-3n2)c1
5. OCc1ccc2nc(Cn3ccc4nc(-c5ccccc5F)nc-4c3)sc2c1
6. COc1ncccc1-c1nc2ccn(Cc3nc4cc(C)ccc4s3)cc-2n1
7. COc1ccc2oc(Cn3ccc4nc(-c5ccccc5F)nc-4c3)nc2c1
8. Cc1ccc2nc(Cn3ccc4nc(-c5cnn(C)c5C)cc-4c3)sc2c1

result:
[6.33, 5.72, 7.80, 7.72, 6.44, 7.07, 6.35, 7.92]

Lab book: pEC50 of Fc1ccc(F)c(-c2cc(Cn3ccc4nc(-c5ccccc5F)nc-4c3)on2)c1 noted as 7.12
